TEST_DETAILS: Primary fluorescence-based thiol-reactive (MSTI) qHTS assay for identification of artifact compounds. (AID 1845221); further: nearly all actives have a fitted effect of over 65% in size
SETUP_CONDITIONS: MSTI thiol-reactivity probe, 1 h; series mostly up to 53.8 µM
Inconclusive results are not listed. Activity calls are given as the source filed them. The call rests on the fitted dose curve; in most records, active means well fitted inhibition curve with a large enough effect; inconclusive means small, poorly fitted or top-dose-only effect; inactive means no such curve, though single readings can be large or run the other way.
Classes used: active, inactive

                                    compound  label_class
 0  Cc1cc(N2CCOCC2)cc2[nH]c(-c3c(NC[C@@H](O)c4cccc(Cl)c4)cc[nH]c3=O)nc12       active
 1  Cc1cn2c(-c3cn[nH]c3)cnc2c(Nc2ccc(C(=O)N3CCNCC3)cc2F)n1     inactive
 2     O=c1c2ccccc2nc2n1CCc1c-2[nH]c2ccccc12     inactive
 3  COc1cc2c(Oc3ccc(-c4cnc(Nc5ccc(F)cc5)n(C)c4=O)cc3F)ccnc2cc1OCCCN1CCOCC1     inactive
 4  CC(C)(O)CCc1ccc(OCc2cc(-c3cccc(OC(F)F)c3)c3ncccc3c2)cc1     inactive
 5  CCCn1c(=O)c2[nH]c(-c3cnn(Cc4cccc(C(F)(F)F)c4)c3)nc2n(CC)c1=O     inactive
 6  Fc1cc(-c2cccc3ncc(-c4cnn(C5CCNCC5)c4)nc23)cc(F)c1CN1CCOCC1     inactive
 7  Cc1c(C)n(Cc2ccc(-c3ccccc3C(=O)O)cc2)c2ccc(C(=O)N[C@@H](C)c3ccc([N+](=O)[O-])cc3)cc12     inactive
 8  C[C@]12CC[C@H](O)CC1=CCC1C2CC[C@]2(C)C(n3cnc4ccccc43)=CCC12 (stereo not given in full)     inactive
 9  c1nc2nc(Nc3ccc(N4CCOCC4)cc3)nc(NC3CCCCC3)c2[nH]1       active
10           Clc1cccc(-c2nnnn2Cc2cccnc2)c1Cl     inactive
11  NC(=O)c1cccc2cn(-c3ccc([C@@H]4CCCNC4)cc3)nc12     inactive
12       Clc1ccc2ncc(-c3cccc(NC4CNC4)n3)n2c1     inactive
13  COc1ccc(-c2cc3c(C)nc(N)nc3n(C3CCC(OCCO)CC3)c2=O)cn1 (stereo not given)     inactive
14  CC(C)Nc1cc(C(F)(F)F)cc2nc(NC(=O)c3cccnc3)nn12     inactive
15  CC(=O)Nc1nc(C)c(-c2ccc(Cl)c(S(=O)(=O)NCCO)c2)s1     inactive
16  Cc1ccc2nc(NC(=O)CSc3nc4c(c(=O)n3-c3ccccc3)SCC4)sc2c1     inactive
17  COc1cc2c(Oc3ccc(NC(=O)C4(C(=O)Nc5ccc(F)cc5)CC4)cc3F)ccnc2cc1OCCCN1CCOCC1     inactive
18  NC(=O)c1c(OCc2c(F)cc(Br)cc2F)nsc1NC(=O)NCCCCN1CCCC1     inactive
19  CNC(=O)c1ccccc1Nc1nc(Nc2ccc(N3CCOCC3)cc2OC)ncc1Cl       active
